Origin of the recorded values: patent US10954265B2

target: GR (Homo sapiens); assay: Determination of induction activity, MMTV-Luc reporter in AD293 cells transfected with pRShGR (Table 3, FIG. 14); conditions: AD293, read-out: Steroid Fold Induction
# if value of fold induction at 1 µM reaches 30, tag TRUE; if it stays below, tag FALSE

>  <Compound>
CON(C)C(=O)[C@@]1(OC(=O)c2ccco2)[C@H](C)CC2C3C=C(F)C4=Cc5c(cnn5-c5ccccc5)C[C@]4(C)[C@@]3(F)C(O)C[C@@]21C (stereo partly shown) [VSGC12, reference compound]

>  <Target desc>
GR (Homo sapiens)

>  <Answer label>
TRUE

$$$$
>  <Compound>
CCOC(=O)[C@@]1(OC(=O)c2ccco2)[C@H](C)CC2C3C=C(F)C4=Cc5c(cnn5-c5ccccc5)C[C@]4(C)[C@@]3(F)C(O)C[C@@]21C (stereo partly shown) [Compound 2]

>  <Target desc>
GR (Homo sapiens)

>  <Answer label>
FALSE

$$$$
>  <Compound>
C[C@@H]1CC2C3C=C(F)C4=Cc5c(cnn5-c5ccccc5)C[C@]4(C)[C@@]3(F)C(O)C[C@]2(C)[C@@]1(OC(=O)c1ccco1)C(=O)OCF (stereo partly shown) [Compound 4]

>  <Target desc>
GR (Homo sapiens)

>  <Answer label>
FALSE

$$$$
>  <Compound>
CC(C)OC(=O)[C@@]1(OC(=O)c2ccco2)[C@H](C)CC2C3C=C(F)C4=Cc5c(cnn5-c5ccccc5)C[C@]4(C)[C@@]3(F)C(O)C[C@@]21C (stereo partly shown) [Compound 3]

>  <Target desc>
GR (Homo sapiens)

>  <Answer label>
FALSE

$$$$
>  <Compound>
C[C@@H]1CC2C3C=C(F)C4=Cc5c(cnn5-c5ccccc5)C[C@]4(C)[C@@]3(F)C(O)C[C@]2(C)[C@@]1(OC(=O)c1ccco1)C(=O)OC(C)(C)C (stereo partly shown) [Compound 6]

>  <Target desc>
GR (Homo sapiens)

>  <Answer label>
TRUE

$$$$
>  <Compound>
C[C@@H]1CC2C3C=C(F)C4=Cc5c(cnn5-c5ccccc5)C[C@]4(C)[C@@]3(F)C(O)C[C@]2(C)[C@@]1(OC(=O)c1ccco1)C(=O)SCF (stereo partly shown) [Compound 5]

>  <Target desc>
GR (Homo sapiens)

>  <Answer label>
FALSE

$$$$
>  <Compound>
C[C@@H]1CC2C3C=C(F)C4=Cc5c(cnn5-c5ccccc5)C[C@]4(C)[C@@]3(F)C(O)C[C@]2(C)[C@@]1(OC(=O)c1ccco1)C(=O)O (stereo partly shown) [Compound 1]

>  <Target desc>
GR (Homo sapiens)

>  <Answer label>
FALSE

$$$$

###

Biological target: GR (Homo sapiens, UniProt P04150)
Sequence (P04150 1-777): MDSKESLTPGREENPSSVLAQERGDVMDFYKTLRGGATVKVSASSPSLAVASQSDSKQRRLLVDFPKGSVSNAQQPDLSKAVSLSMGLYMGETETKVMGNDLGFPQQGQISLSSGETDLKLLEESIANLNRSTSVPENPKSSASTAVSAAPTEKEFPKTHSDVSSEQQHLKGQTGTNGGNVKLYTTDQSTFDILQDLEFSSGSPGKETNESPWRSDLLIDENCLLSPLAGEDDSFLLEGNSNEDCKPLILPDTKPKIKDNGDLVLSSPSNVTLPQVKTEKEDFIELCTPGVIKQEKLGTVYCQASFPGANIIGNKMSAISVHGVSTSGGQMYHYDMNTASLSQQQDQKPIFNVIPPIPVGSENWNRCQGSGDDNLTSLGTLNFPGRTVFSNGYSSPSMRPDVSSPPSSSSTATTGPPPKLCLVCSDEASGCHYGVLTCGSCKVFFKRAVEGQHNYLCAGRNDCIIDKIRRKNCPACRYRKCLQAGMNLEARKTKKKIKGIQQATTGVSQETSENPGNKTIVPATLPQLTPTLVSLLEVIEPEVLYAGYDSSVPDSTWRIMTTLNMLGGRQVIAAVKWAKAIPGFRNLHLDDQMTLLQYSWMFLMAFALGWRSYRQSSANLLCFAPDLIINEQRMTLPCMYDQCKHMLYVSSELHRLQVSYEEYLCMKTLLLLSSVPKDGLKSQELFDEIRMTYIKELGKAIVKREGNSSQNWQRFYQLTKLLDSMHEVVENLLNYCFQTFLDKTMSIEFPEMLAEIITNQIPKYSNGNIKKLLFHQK
Assay: Determination of induction activity, MMTV-Luc reporter in AD293 cells transfected with pRShGR (Table 3, FIG. 14)
Details: AD293, 16 h, read-out: % to Dex induction
Method: AD293 cells were split at 20,000/well in 24 well plate one day before transfection. For transactivation, 100 ng pHHLuc (MMTV-Luc) plasmid, 0.1 ng pRShGR together with 5 ng phRGtkRenilla were transfected by X-tremeGENE 9 (Roche) into AD293 cells per well. […] AD293 cells were transfected with 0.1 ng pRShGR, 100 ng MMTV-Luc reporter, and 10 ng TK-Renilla internal control per well in a 24-well plate. […] Cells were harvested and luciferase activity was measured by Promega Dual Luciferacse kit.
Below: a set of entries, each annotated with reported activation at 0.01 µM.

>  <Compound>
C[C@@H]1CC2C3C=C(F)C4=Cc5c(cnn5-c5ccccc5)C[C@]4(C)[C@@]3(F)C(O)C[C@]2(C)[C@@]1(OC(=O)c1ccco1)C(=O)SCF (stereo partly shown)

>  <Target desc>
GR (Homo sapiens, UniProt P04150)

>  <Measure unit>
%

>  <activation at 0.01 µM>
101

$$$$
>  <Compound>
CON(C)C(=O)[C@@]1(OC(=O)c2ccco2)[C@H](C)CC2C3C=C(F)C4=Cc5c(cnn5-c5ccccc5)C[C@]4(C)[C@@]3(F)C(O)C[C@@]21C (stereo partly shown) [VSGC12, reference compound]

>  <Target desc>
GR (Homo sapiens, UniProt P04150)

>  <Measure unit>
%

>  <activation at 0.01 µM>
97.8

$$$$
>  <Compound>
C[C@@H]1CC2C3C=C(F)C4=Cc5c(cnn5-c5ccccc5)C[C@]4(C)[C@@]3(F)C(O)C[C@]2(C)[C@@]1(OC(=O)c1ccco1)C(=O)OCF (stereo partly shown)

>  <Target desc>
GR (Homo sapiens, UniProt P04150)

>  <Measure unit>
%

>  <activation at 0.01 µM>
92.9

$$$$
>  <Compound>
CCOC(=O)[C@@]1(OC(=O)c2ccco2)[C@H](C)CC2C3C=C(F)C4=Cc5c(cnn5-c5ccccc5)C[C@]4(C)[C@@]3(F)C(O)C[C@@]21C (stereo partly shown)

>  <Target desc>
GR (Homo sapiens, UniProt P04150)

>  <Measure unit>
%

>  <activation at 0.01 µM>
92.6

$$$$
>  <Compound>
C[C@@H]1CC2C3C=C(F)C4=Cc5c(cnn5-c5ccccc5)C[C@]4(C)[C@@]3(F)C(O)C[C@]2(C)[C@@]1(OC(=O)c1ccco1)C(=O)OC(C)(C)C (stereo partly shown)

>  <Target desc>
GR (Homo sapiens, UniProt P04150)

>  <Measure unit>
%

>  <activation at 0.01 µM>
98.8

$$$$
>  <Compound>
CC(C)OC(=O)[C@@]1(OC(=O)c2ccco2)[C@H](C)CC2C3C=C(F)C4=Cc5c(cnn5-c5ccccc5)C[C@]4(C)[C@@]3(F)C(O)C[C@@]21C (stereo partly shown)

>  <Target desc>
GR (Homo sapiens, UniProt P04150)

>  <Measure unit>
%

>  <activation at 0.01 µM>
102

$$$$
>  <Compound>
C[C@@H]1CC2C3C=C(F)C4=Cc5c(cnn5-c5ccccc5)C[C@]4(C)[C@@]3(F)C(O)C[C@]2(C)[C@@]1(OC(=O)c1ccco1)C(=O)O (stereo partly shown)

>  <Target desc>
GR (Homo sapiens, UniProt P04150)

>  <Measure unit>
%

>  <activation at 0.01 µM>
8.33

$$$$
